target: Pro-neuregulin-1, membrane-bound isoform (Homo sapiens) (UniProt Q02297); assay: NRG1 binders on small-molecule microarrays, primary screen, psychiatric disease protein project, biochemical, small-molecule microarray, fluorescence 635/667 (AID 1075); conditions: NRG1 binding, 635 nm fluorescence, higher = more signal;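 also: score combines 667 nm spot fluorescence with signal to noise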
Sequence (Q02297 whole entry, looked up, canonical isoform): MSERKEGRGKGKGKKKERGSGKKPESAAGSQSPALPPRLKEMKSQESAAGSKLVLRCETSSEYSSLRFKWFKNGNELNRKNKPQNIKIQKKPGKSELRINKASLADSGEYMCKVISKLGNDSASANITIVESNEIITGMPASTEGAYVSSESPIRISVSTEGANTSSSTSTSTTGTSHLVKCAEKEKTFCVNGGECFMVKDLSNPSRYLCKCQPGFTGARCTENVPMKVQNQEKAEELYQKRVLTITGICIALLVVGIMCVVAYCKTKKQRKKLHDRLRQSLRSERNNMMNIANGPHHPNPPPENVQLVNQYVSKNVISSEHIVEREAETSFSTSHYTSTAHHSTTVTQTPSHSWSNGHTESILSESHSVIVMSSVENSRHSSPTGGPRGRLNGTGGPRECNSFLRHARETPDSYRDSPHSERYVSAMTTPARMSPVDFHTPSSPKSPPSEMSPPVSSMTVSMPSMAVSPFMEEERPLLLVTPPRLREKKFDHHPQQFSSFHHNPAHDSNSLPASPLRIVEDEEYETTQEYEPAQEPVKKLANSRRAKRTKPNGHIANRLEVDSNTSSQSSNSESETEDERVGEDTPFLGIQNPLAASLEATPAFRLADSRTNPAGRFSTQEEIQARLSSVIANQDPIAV
METRIC_NAME: composite z-score
Respond numerically, and do not add a unit to the figure.

Request: Item under review: C=CCNC(=O)[C@@H]1[C@H]2C(=O)O[C@H](c3ccccc3)[C@H](c3ccccc3)N2[C@H](c2ccc(O)cc2)[C@@]12C(=O)N(C(=O)OCCOC)c1ccc(C#CC3(O)CCCCCC3)cc12 . Reported composite z-score?
Response: -0.712

Request: What measured composite z-score goes with C[C@@H]1NC(=O)[C@@]23C(=O)N[C@@H](Cc4ccccc4)C2[C@H](C)[C@@]2(C)O[C@H]2C3/C=C/C/C=C\CNC(=O)[C@@H]2CCCN2C1=O (stereo partly drawn) ?
Response: -0.365

Request: Quick check: composite z-score of COCC1=C2[C@@H](CCc3ccccc3)OB(O)C[C@@H]2[C@@H]2C(=O)C=CC(=O)[C@@H]2C1 ?
Response: 0.404

Request: State the recorded composite z-score for this entry: COC(=O)[C@@]1(Cc2ccc(F)cc2)[C@H]2c3cc(C(=O)N4CCCC4)n(CCN4CNCC4=O)c3C[C@H]2CN1C(=O)c1ccccc1
Response: 1.07

Request: Please report the recorded composite z-score for C=CC1c2cc(O)c(OC)cc2CCN1Cc1cc2c(cc1Br)OCO2 (stereo not drawn) .
Response: 1.19

Request: State the recorded composite z-score for this entry: CN(C)CCCNC(=O)[C@@]1(C)c2ccccc2C(=O)N(Cc2ccccc2)[C@H]1c1ccc(CO)cc1
Response: 1.62

Request: Which value of composite z-score has been reported for CN1C(=O)C2C=CC(C(O)c3ccccn3)N(N(c3ccccc3)c3ccccc3)C2C1=O (stereo not drawn) in the records?
Response: 0.899

Request: What value of measured composite z-score is listed for CC(C)(C)N1CC=CC23O[C@@H]4C=CCCOC(=O)C4[C@H]2C(=O)N(CCO)[C@@H]3C1=O (stereo partly drawn) ?
Response: 0.767
